Values were extracted from ChEMBL document CHEMBL1129182.

experimental_protocol: pKa value was evaluated
Format: physicochemical
assay_metric: pKa
I only need the number, thanks.

Guide cases for pKa, answers given:
molecular_string	pKa
COC1(c2cc(F)cc(Sc3ccc(/C(=N/O)C(C)=O)cc3)c2)CCOCC1	8.4
COC1(c2cc(F)cc(Sc3ccc(/C(=N/O)C(F)(F)F)cc3)c2)CCOCC1	7.68
CCOC(=O)/C(=N\O)c1ccc(Sc2cc(F)cc(C3(OC)CCOCC3)c2)cc1	9.3

For the next question, use this compound.
Ask: Need pKa, item COC1(c2cc(F)cc(Sc3ccc(/C(C#N)=N/O)cc3)c2)CCOCC1
Result: 6.2

###

Species: Homo sapiens
experimental_protocol: In vitro inhibitory activity against LTB4 synthesis in A-23187 stimulated human whole blood (HB1).
Assay type: functional
Parameter: IC50. Scope: all listed entries.
Write the value in nM as a bare number.

Record excerpt, results attached:
molecular_string	output_unit	IC50
COC1(c2cc(F)cc(Sc3ccc(/C(C)=N/OC(C)C)cc3)c2)CCOCC1	nM	920
CO/N=C(\C)c1ccc(Sc2cc(F)cc(C3(OC)CCOCC3)c2)cc1	nM	110
CO[C@]1(c2cc(F)cc(S(=O)(=O)c3ccc(/C(C)=N/OCC#N)cc3)c2)CCO[C@@H](C)C1	nM	60
COC1(c2csc(Sc3ccc4c(c3)CC/C4=N\OCC#N)c2)CCOCC1	nM	40
CO[C@]1(c2cnc(Sc3ccc(/C(C)=N/O)cc3)s2)CCO[C@@H](C)C1	nM	40
CCOC(=O)/C(=N\O)c1ccc(Sc2cc(F)cc(C3(OC)CCOCC3)c2)cc1	nM	170

Consider the record given below.
Ask: Give its IC50 value. Item: COC1(c2cc(F)cc(Sc3ccc(/C(C)=N/OCC(=O)O)cc3)c2)CCOCC1
Result: 740
